Listing: growth inhibition of selected compounds
Assay: NCI Yeast Anticancer Drug Screen. Data for the cln2 rad14 strain (AID 165);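 note: 0% = growth equal to vehicle treated cultures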
Conditions: S. cerevisiae cln2 rad14 strain, hits give high values; at 50.0 µM unless noted
Procedure: Growth inhibition of yeast strains with defined genetic alterations is measured as a screen for potential anti-cancer activity. Selected strains with alterations in DNA damage repair or cell cycle control were exposed to compounds and growth inhibition was measured relative to vehicle treated controls. The strain used in this assay is cln2 rad14
The panel holds about 79,000 compounds, 15% with a hit somewhere; the sample as a whole holds those more often.
Property: growth inhibition (%)

Compound	Property	Numeric Value
C=CCONC(=O)c1ccc(Cl)cc1	growth inhibition	-5.5
CC(=O)Nc1cc(Cl)ccc1[N+](=O)[O-]	growth inhibition	1.25
CCCSc1nc(C(=O)O)cc(=O)[nH]1	growth inhibition	-44.2
Cc1ccc(Nc2ccc(C)cc2[N+](=O)[O-])cc1	growth inhibition	15.1
Cc1[nH]c(=O)cc2c1[nH]c1ccccc12	growth inhibition	-44.2
CC(=O)Nc1c(N)c2ccccc2c2ccccc12	growth inhibition	1.75
COc1cc(CNc2nc3ccc(C(F)(F)F)cc3nc2-c2ccccc2)cc(OC)c1OC	growth inhibition	-10.2
O=CNc1cccnc1C1OCCO1	growth inhibition	-13.3
CN(C)P1(=O)N(c2ccccc2)P(=O)(N(C)C)N1c1ccccc1 (configuration not stated)	growth inhibition	-1.55
Cc1cc(=O)[nH]c(NNC(C#N)c2ccc(O)cc2)n1 (configuration not stated)	growth inhibition	-7.6
NCCS(=O)(=O)O	growth inhibition	19.8
Oc1ccc(Br)cc1/C=N/c1nc2ccccc2s1.Oc1ccc(Br)cc1/C=N/c1nc2ccccc2s1.[Cu]	growth inhibition	15.3

---

Listing: growth inhibition of selected compounds
Assay: NCI Yeast Anticancer Drug Screen. Data for the cln2 rad14 strain (AID 165);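 note: 0% = growth equal to vehicle treated cultures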
Details: S. cerevisiae cln2 rad14 strain, at 50.0 µM (retest, dose inferred, filed as 5.0), hits give high values
This is part of a sample that, as a whole, favours compounds with a hit. Of some 79,000 tested, about 15% had one in any assay.

Compound	growth inhibition, %
CCCCOC(=O)/C=C\C(=O)NC(N)=O	1
CC(=O)OC(C)C(=O)NCC(C)O (stereo not given)	-7
CC(C)NC(=O)N/C=C(\C#N)C(N)=O	1
Fc1ccc([I+]c2ccc(F)cc2)cc1	32
CN(C)c1ccc(/C=C\C(=O)c2ccccc2)cc1	15

---

Listing: growth inhibition of selected compounds
Assay: NCI Yeast Anticancer Drug Screen. Data for the mlh1 rad18 strain (AID 175)
Details: S. cerevisiae mlh1 rad18 strain growth inhibition, hits give high values; at 50.0 µM unless noted
About 79,000 compounds went through this panel and 15% of them were active in at least one assay; those are over-represented in the sample as a whole.

Compound	growth inhibition (%)
CC(=O)CCC(C)C1CCC2C3CCC4CCCCC4(C)C3CCC12C (stereo unspecified)	-1.8
O=c1[nH]c(=O)n(C2CC(O)C(CO)O2)cc1OCCCc1ccccc1 (stereo unspecified)	-3.2
CC(=O)OCC(C)(O)C#N (stereo unspecified)	-22.6
COc1ccc2c(c1)[n+](=O)c(C(=O)C/C(=N\NC(=O)C[N+](C)(C)C)C(=O)Nc1cc(Cl)ccc1Cl)c(C)n2O	-23.4
Clc1nc(NCCc2ccccc2)c2ncn(-c3ccccc3)c2n1	42.8
Cc1cc([N+](=O)[O-])cc(Br)c1N	25.4
